Target: Polyunsaturated fatty acid 5-lipoxygenase (Rattus norvegicus)
Sequence (P12527 whole entry): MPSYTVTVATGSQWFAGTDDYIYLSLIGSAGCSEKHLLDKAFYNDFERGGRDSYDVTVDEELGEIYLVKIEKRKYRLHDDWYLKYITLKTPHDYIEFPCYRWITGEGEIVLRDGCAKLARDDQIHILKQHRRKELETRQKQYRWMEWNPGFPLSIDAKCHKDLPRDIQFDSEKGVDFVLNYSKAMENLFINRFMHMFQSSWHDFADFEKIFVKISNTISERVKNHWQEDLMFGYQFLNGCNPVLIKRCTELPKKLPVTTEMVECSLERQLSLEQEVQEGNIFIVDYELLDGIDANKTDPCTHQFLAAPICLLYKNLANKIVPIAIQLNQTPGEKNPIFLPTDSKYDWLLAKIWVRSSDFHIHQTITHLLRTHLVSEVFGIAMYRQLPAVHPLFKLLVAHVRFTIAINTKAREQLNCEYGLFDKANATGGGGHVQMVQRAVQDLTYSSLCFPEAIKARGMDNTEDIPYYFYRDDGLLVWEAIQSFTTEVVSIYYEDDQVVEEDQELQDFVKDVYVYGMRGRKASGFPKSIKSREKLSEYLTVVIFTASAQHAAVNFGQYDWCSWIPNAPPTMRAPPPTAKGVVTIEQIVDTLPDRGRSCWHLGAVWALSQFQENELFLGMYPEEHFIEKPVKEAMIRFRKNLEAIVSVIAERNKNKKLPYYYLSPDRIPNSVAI
Each item that follows carries a reported pIC50.
Formally, pIC50 is defined as -log10 of the concentration c, with c in mol/L.

Some compounds with recorded pIC50:
# compound, experimental_endpoint, numeric_readout
data = [
    ("NC(=O)N(O)C1CCCc2cc(OCc3ccccc3)ccc21 (single isomer, unassigned; (+))", "pIC50", 6.12),
    ("NC(=O)N(O)C1CCc2cc(OCc3ccccc3)ccc21 (single isomer, unassigned; (+))", "pIC50", 6.06),
]

Continue with the compound presented below.
Which pIC50 is reported for this compound? NC(=O)N(O)C1CCCc2ccc(OCc3ccccc3)cc21 (stereo not drawn) 6.00

Reference for the values: ChEMBL document CHEMBL1129750
